- System: Moraxella catarrhalis
- assay-method-text: MIC against Gram-negative bacteria: Moraxella catarrhalis
- Assay type: cell-based
- settings: M. catarrhalis; 10 h cultivation at 37° C.
MIC overview
Your answer should be a plain number; it is taken to be in µg/mL.

Solved cases (4 shown):
| substance | quantitative-readout |
| --- | --- |
| PRT901 (DINECVLSPCRHGASCQNTHGGYRCHCQAGYSGRNCE; listed as Homo sapiens) | 50 |
| PRT914 (DARTCGSLRCLNGGTCISGPRSPTCLCLGPFTGPECQ; listed as Homo sapiens) | 12.5 |
| PRT983 (VARSCRELQCPVGVPCQQTPRGPRCACPPGLSGPSCR; listed as Homo sapiens) | 12.5 |
| PRT1023 (PINYCETGLHNCDIPQRAQCIYTGGSSYTCSCLPGFSGDGQACQ; listed as Homo sapiens) | 12.5 |

Moving on to the next substance.
Please look up its MIC: PRT903 (DINECASDPCRNGANCTDCVDSYTCTCPAGFSGIHCE; listed as Homo sapiens)
12.5

The reported numbers originate from patent US9833497B2.
